// data source = ChEMBL document CHEMBL3860084

Listed next: entries and their corresponding log10 MIC.
tested on: Salmonella typhi; test: Antibacterial activity against Salmonella typhi ATCC 422 by resazurin based broth microdilution method; assay type: functional, Salmonella enterica subsp. enterica serovar Typhi; details: Salmonella enterica
Please note: log10 values; quantity MIC; unit µM.

Solved cases below.
| compound | obs value |
| --- | --- |
| CC1=Cc2c(c(C)cc(O)c2C(C)C)C(=O)C1=O | 1.19 |
| CC1=C2OCC(C)c3c(O)cc(C)c(c32)C(=O)C1=O (stereo unspecified) | 1.49 |
| C=CCOc1cc(C)c2c(c1C(C)C)C=C(C)C(=O)C2=O | 1.80 |

Task item: I would be grateful if you could share the reported log10 MIC for CC(C)=CCC/C(C)=C/COc1cc(C)c2c(c1C(C)C)C=C(C)C(=O)C2=O .
Reply: 2.10

Task item: I would be grateful if you could share the reported log10 MIC for CC1=Cc2c(C(C)C)ccc(C)c2C(=O)C1=O .
Reply: 1.49

Task item: I would be grateful if you could share the reported log10 MIC for CCCCOc1cc(C)c2c(c1C(C)C)C=C(C)C(=O)C2=O .
Reply: 0.59

----------
tested on: Salmonella typhi; assay: Antibacterial activity against Salmonella typhi ATCC 422 at 1000 uM after 24 hrs by agar well-diffusion method; type: functional, Salmonella enterica subsp. enterica serovar Typhi; conditions: Salmonella enterica, ATCC 422, 24 h; read-out: DIZ
Please use Yes whenever zone of inhibition at 1000 µM is not below 10 mm, and No whenever it is.

// known answers, use as guide
| molecule | class assignment |
| --- | --- |
| CCCCCCCCOc1cc(C)c2c(c1C(C)C)C=C(C)C(=O)C2=O | Yes |
| CCCCCC(=O)Oc1cc(C)c2c(c1C(C)C)C=C(C)C(=O)C2=O | No |
| COc1cc(C)c2c(c1C(C)C)C=C(C)C(=O)C2=O | Yes |
| CC1=C2OCC(C)c3ccc(C)c(c32)C(=O)C1=O (stereo not given) | Yes |

Continue with the molecule presented below.
Task item: I'd appreciate it if you could say whether CCOc1cc(C)c2c(c1C(C)C)C=C(C)C(=O)C2=O has zone of inhibition at 1000 µM at least equal to 10 mm.
Reply: Yes
